- system-under-test: CYP2D6 (Homo sapiens)
- Construct: purchased Promega Corp. V9890
- Sequence (P10635 whole entry): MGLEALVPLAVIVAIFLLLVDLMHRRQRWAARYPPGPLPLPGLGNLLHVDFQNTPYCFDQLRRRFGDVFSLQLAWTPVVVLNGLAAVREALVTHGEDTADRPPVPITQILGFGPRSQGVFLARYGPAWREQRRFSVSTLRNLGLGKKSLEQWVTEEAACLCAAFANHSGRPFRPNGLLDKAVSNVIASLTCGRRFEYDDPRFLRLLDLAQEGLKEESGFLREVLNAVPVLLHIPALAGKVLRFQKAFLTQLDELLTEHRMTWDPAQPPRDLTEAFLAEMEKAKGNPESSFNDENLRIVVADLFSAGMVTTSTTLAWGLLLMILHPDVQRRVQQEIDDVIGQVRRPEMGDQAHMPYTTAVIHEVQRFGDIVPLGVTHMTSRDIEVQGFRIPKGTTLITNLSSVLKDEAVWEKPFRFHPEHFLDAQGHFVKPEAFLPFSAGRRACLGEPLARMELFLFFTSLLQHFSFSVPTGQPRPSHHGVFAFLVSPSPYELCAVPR
- test-summary: CYP inhibition assay (P450-Glo) CYP2D6
- Format: in vitro ADME
- condition-details: P450-Glo CYP2D6 Screening System (CYP enzyme), read-out: CYP inhibition 2D6
measure: inhibition at 10 µM (%)
// return numeric value only (unit: %, not printed)

Item under review: Cc1ccn(-c2cc(Cl)ccc2[C@@H](Oc2ncnc3c(-c4ccc(C[C@H](N)C(=O)O)cc4)csc23)C(F)(F)F)n1.Cl [Compound 18i] . Reported inhibition at 10 µM?
24.6

---

- test-summary: Blood brain barrier PK: plasma and brain levels after iv dosing
- Format: in vivo, male SD rats
- condition-details: SD, rat, plasma; male rats, 5 mg/kg iv, 0.5 h; read-out: BBB penetration: plasma level
measure: concentration at 0.5 h (ng/mL)
// return numeric value only (unit: ng/mL, not printed)

Item under review: Cc1ccn(-c2cc(Cl)ccc2[C@@H](Oc2ncnc3c(-c4ccc(C[C@H](N)C(=O)O)cc4)csc23)C(F)(F)F)n1.Cl [Compound 18i] . Reported concentration at 0.5 h?
2270

---

- system-under-test: CYP3A4 (Homo sapiens)
- Construct: purchased Promega Corp. V9920
- Sequence (P08684 whole entry): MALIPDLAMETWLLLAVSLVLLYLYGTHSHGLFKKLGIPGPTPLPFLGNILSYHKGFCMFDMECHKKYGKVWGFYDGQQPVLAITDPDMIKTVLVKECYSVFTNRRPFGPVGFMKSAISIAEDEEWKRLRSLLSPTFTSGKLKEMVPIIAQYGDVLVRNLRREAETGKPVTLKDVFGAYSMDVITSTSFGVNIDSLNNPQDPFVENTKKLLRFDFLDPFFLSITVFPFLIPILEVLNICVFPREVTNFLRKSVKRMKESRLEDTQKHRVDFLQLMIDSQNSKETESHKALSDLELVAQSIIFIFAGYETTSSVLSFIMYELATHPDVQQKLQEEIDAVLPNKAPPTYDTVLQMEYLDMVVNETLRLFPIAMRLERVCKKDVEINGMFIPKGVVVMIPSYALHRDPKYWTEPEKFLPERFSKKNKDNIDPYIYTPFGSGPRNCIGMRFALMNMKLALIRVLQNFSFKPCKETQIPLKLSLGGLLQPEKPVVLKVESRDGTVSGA
- test-summary: CYP inhibition assay (P450-Glo) CYP3A4
- Assay type: in vitro ADME
- condition-details: P450-Glo CYP3A4 Screening System (CYP enzyme), read-out: CYP inhibition 3A4
measure: inhibition at 10 µM (%)
// return numeric value only (unit: %, not printed)

Item under review: Cc1ccn(-c2cc(Cl)ccc2[C@@H](Oc2ncnc3c(-c4ccc(C[C@H](N)C(=O)O)cc4)csc23)C(F)(F)F)n1.Cl [Compound 18i] . Reported inhibition at 10 µM?
45.3

---

- system-under-test: CYP2C19 (Homo sapiens)
- Construct: purchased Promega Corp. V9880
- Sequence (P33261 whole entry): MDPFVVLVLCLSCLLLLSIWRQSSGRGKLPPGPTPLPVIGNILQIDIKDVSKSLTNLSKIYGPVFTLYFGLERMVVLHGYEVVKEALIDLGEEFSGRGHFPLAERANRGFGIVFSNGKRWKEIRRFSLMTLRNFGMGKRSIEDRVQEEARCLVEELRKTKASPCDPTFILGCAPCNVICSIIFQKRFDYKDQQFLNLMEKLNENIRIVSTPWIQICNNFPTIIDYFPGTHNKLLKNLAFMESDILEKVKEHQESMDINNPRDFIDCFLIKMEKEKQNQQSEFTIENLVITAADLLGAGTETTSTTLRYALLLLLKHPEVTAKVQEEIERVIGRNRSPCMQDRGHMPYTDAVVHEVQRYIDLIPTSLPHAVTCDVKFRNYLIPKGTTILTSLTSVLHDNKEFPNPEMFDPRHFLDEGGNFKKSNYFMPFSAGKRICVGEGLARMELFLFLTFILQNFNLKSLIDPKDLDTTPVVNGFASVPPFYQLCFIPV
- test-summary: CYP inhibition assay (P450-Glo) CYP2C19
- Type: in vitro ADME
- condition-details: P450-Glo CYP2C19 Screening System (CYP enzyme), read-out: CYP inhibition 2C19
measure: inhibition at 10 µM (%)
// return numeric value only (unit: %, not printed)

Item under review: Cc1ccn(-c2cc(Cl)ccc2[C@@H](Oc2ncnc3c(-c4ccc(C[C@H](N)C(=O)O)cc4)csc23)C(F)(F)F)n1.Cl [Compound 18i] . Reported inhibition at 10 µM?
46.5

---

- system-under-test: TPH1 (Homo sapiens, UniProt P17752)
- Construct: purchased BPS Bioscience
- Sequence (P17752 whole entry): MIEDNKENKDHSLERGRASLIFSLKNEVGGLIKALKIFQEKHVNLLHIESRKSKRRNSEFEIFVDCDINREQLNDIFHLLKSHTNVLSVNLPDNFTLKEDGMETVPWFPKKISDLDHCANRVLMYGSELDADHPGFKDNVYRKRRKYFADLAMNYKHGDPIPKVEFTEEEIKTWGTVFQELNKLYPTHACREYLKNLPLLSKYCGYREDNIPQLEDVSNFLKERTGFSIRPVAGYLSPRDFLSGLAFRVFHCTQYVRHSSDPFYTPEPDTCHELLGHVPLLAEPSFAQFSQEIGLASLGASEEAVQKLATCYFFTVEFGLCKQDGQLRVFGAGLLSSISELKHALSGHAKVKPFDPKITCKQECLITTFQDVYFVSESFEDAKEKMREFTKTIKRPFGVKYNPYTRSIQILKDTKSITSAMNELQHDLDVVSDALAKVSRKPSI
- test-summary: TPH1 enzyme inhibition, in vitro screening (BPS Bioscience kit, fluorescence)
- Type: biochemical
measure: TPH1 inhibitory activity (in words)

{"compound": "N[C@@H](Cc1ccc(-c2csc3c(O)ncnc23)cc1)C(=O)O [Compound 15b]", "measure": "TPH1 inhibitory activity (in words)", "assay-result": "weak activity"}
{"compound": "Nc1ncnc2c(-c3ccc(C[C@H](N)C(=O)O)cc3)csc12 [Compound 15a]", "measure": "TPH1 inhibitory activity (in words)", "assay-result": "weak activity"}

---

- test-summary: Blood brain barrier PK: plasma and brain levels after iv dosing
- Format: in vivo, male SD rats
- condition-details: SD, rat, plasma; male rats, 5 mg/kg iv, 3 h; read-out: BBB penetration: plasma level
- Protocol: The biodistribution study in plasma and brain tissue was performed using eight-week-old male SD rats (Orient Bio Inc., Seongnam, Korea). Dosing vehicles were composed of DMSO, PEG400, and deionized water (5:40:55, v/v/v). 18i compound was administrated at a dose of 5 mg/kg via intravenous (I.V.). […] The supernatant was collected and analyzed by an LC-MS/MS system. […]
measure: concentration at 3 h (ng/mL)
// return numeric value only (unit: ng/mL, not printed)

Item under review: Cc1ccn(-c2cc(Cl)ccc2[C@@H](Oc2ncnc3c(-c4ccc(C[C@H](N)C(=O)O)cc4)csc23)C(F)(F)F)n1.Cl [Compound 18i] . Reported concentration at 3 h?
1440

---

- test-summary: PAMPA-BBB permeability
- Type: in vitro ADME
- condition-details: high permeation predicted > 4.0, low < 2.0, read-out: BBB Permeability Pe
measure: Papp at 4 h, 50 µM

Item under review: NC(Cc1ccc(Cl)cc1)C(=O)O (stereo not shown) [pCPA, para-chlorophenylalanine, reference compound] . Reported Papp at 4 h, 50 µM?
18.5 nm/s

---

- test-summary: Pharmacokinetic study in rats (iv and oral)
- Type: in vivo, male SD rats
- condition-details: SD, rat, plasma, 5 mg/kg; male rats, iv, 5 mpk
measure: clearance (mL/min/kg)
// return numeric value only (unit: mL/min/kg, not printed)

Item under review: Cc1ccn(-c2cc(Cl)ccc2[C@@H](Oc2ncnc3c(-c4ccc(C[C@H](N)C(=O)O)cc4)csc23)C(F)(F)F)n1.Cl [Compound 18i] . Reported clearance?
68.2

---

- test-summary: Pharmacokinetic study in rats (iv and oral)
- Format: in vivo, male SD rats
- condition-details: male, SD, rat, plasma, intravenous, 5 mg/kg; rats; read-out: AUC (text, kind not stated)
- Experimental: The pharmacokinetic study of 18i was performed using eight-week-old male SD rats (Orient Bio Inc., Seongnam, Korea). 18i and its prodrug 21 (5 mg/kg, 2 mL/kg) were administered via intravenous and oral routes. […] The plasma concentrations of 18i were determined by LC-MS/MS. The plasma concentration-time profiles and pharmacokientic parameters were analyzed by a non-compartmental method using the nonlinear least-squares regression program WinNonlin 5.3 (Pharsight, Mountain View, CA, USA). […]
measure: AUC (µg·h/mL)
// return numeric value only (unit: µg·h/mL, not printed)

Item under review: Cc1ccn(-c2cc(Cl)ccc2[C@@H](Oc2ncnc3c(-c4ccc(C[C@H](N)C(=O)O)cc4)csc23)C(F)(F)F)n1.Cl [Compound 18i] . Reported AUC?
1.2

---

- test-summary: Pharmacokinetic study in rats (iv and oral)
- Format: in vivo, male SD rats
- condition-details: SD, rat, plasma, 5 mg/kg; male rats, iv, 5 mpk
measure: half-life (h)
// return numeric value only (unit: h, not printed)

Item under review: Cc1ccn(-c2cc(Cl)ccc2[C@@H](Oc2ncnc3c(-c4ccc(C[C@H](N)C(=O)O)cc4)csc23)C(F)(F)F)n1.Cl [Compound 18i] . Reported half-life?
1.85

---

- system-under-test: TPH1 (Homo sapiens, UniProt P17752)
- Construct: purchased BPS Bioscience
- test-summary: TPH1 enzyme inhibition, in vitro screening (BPS Bioscience kit, fluorescence)
- Type: biochemical
- condition-details: 1 µM compound
Below, each of the compounds is paired with its reported inhibition at 1 µM value.
// return numeric value only (unit: %, not printed)

{"compound": "N[C@@H](Cc1ccc(-c2csc3c(OC(c4ccc(Cl)cc4-c4ccccc4)C(F)(F)F)ncnc23)cc1)C(=O)O (stereo partly drawn) [Compound 18f]", "unit-info": "%", "inhibition at 1 µM": 41}
{"compound": "C[C@@H](Nc1ncnc2c(-c3ccc(C[C@H](N)C(=O)O)cc3)csc12)c1ccc2ccccc2c1 [Compound 18b]", "unit-info": "%", "inhibition at 1 µM": 10}
{"compound": "Cc1ccn(-c2cc(Cl)ccc2[C@@H](Oc2nc(N)nc3c(-c4ccc(C[C@H](N)C(=O)O)cc4)csc23)C(F)(F)F)n1", "unit-info": "%", "inhibition at 1 µM": 91}
{"compound": "N[C@@H](Cc1ccc(-c2csc3c(O[C@H](c4ccc(Cl)cc4-c4ccoc4)C(F)(F)F)ncnc23)cc1)C(=O)O [Compound 18g]", "unit-info": "%", "inhibition at 1 µM": 12}
{"compound": "N[C@@H](Cc1ccc(-c2csc3c(O[C@H](c4ccc(Cl)cc4C4=CCCOC4)C(F)(F)F)ncnc23)cc1)C(=O)O [Compound 18h]", "unit-info": "%", "inhibition at 1 µM": 78}

Item under review: N[C@@H](Cc1ccc(-c2csc3c(NCc4ccc(-c5ccccc5)cc4)ncnc23)cc1)C(=O)O [Compound 18a] . Reported inhibition at 1 µM?
25

Item under review: Cc1ccn(-c2cc(Cl)ccc2[C@@H](Oc2ncnc3c(-c4ccc(C[C@H](N)C(=O)O)cc4)csc23)C(F)(F)F)n1.Cl [Compound 18i] . Reported inhibition at 1 µM?
95

Item under review: N[C@@H](Cc1ccc(-c2csc3c(OC(c4ccccc4-c4ccccc4)C(F)(F)F)ncnc23)cc1)C(=O)O (stereo partly drawn) [Compound 18e] . Reported inhibition at 1 µM?
76

---

- system-under-test: CYP1A2 (Homo sapiens, UniProt P05177)
- Construct: purchased Promega Corp. V9770
- Sequence (P05177 1-516): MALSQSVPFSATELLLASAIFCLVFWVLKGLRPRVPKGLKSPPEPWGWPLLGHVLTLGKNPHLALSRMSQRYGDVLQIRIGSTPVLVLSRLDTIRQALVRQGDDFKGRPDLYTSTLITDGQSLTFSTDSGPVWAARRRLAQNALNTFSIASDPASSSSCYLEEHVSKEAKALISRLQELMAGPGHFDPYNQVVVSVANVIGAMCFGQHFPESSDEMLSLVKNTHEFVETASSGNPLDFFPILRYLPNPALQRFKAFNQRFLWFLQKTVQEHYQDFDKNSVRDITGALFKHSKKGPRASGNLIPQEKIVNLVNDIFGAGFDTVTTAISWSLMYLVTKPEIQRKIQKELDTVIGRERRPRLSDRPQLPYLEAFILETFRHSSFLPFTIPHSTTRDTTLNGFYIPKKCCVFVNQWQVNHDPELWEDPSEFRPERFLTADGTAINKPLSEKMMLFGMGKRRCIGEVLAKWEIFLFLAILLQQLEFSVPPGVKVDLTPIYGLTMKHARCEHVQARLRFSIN
- test-summary: CYP inhibition assay (P450-Glo) CYP1A2
- Type: in vitro ADME
- condition-details: P450-Glo CYP1A2 Screening System (CYP enzyme), read-out: CYP inhibition 1A2
measure: inhibition at 10 µM
Please answer using a numeric value trailed by its unit.

For CYP1A2 (Homo sapiens, UniProt P05177), provide inhibition at 10 µM of Cc1ccn(-c2cc(Cl)ccc2[C@@H](Oc2ncnc3c(-c4ccc(C[C@H](N)C(=O)O)cc4)csc23)C(F)(F)F)n1.Cl [Compound 18i] please.
0.1%

// data source = paper PMC9182086
